tested on: corn (Zea mays); test: Test A1 preemergence, corn; type: in vivo; settings: 125 g ai/ha, 0 to 100 scale, 0 no effect, 100 complete control
outcome measure: Plant response rating, Corn
One number for each entry.

Consider the following illustrative entries.
> print(dat)
                                   compound    tested.target  numeric.value
1  Cc1ccc(C2=NOC3CCCC23)cc1NS(=O)(=O)C(F)(F)F (stereo not shown)  corn (Zea mays)              0
2  Cc1cc(C)c(N(COC(=O)C(C)C)S(=O)(=O)C(F)(F)F)cc1C1=NOC2CCCC12 (stereo not shown)  corn (Zea mays)             60
3  Cc1cc(C)c(N(COC(=O)C(C)(C)C)S(=O)(=O)C(F)(F)F)cc1C1=NOC(C(C)C)C1 (stereo not shown)  corn (Zea mays)              0

Kindly indicate its recorded Plant response rating, Corn. Item: Cc1cc(C)c(C2=NOC(C(C)C)C2)cc1NS(=O)(=O)C(F)(F)F (stereo not shown)
70
